This collection of values is drawn from the supplement of paper PMC6757056.

B1: library; a variant is named by its letters at N, in order (parent)
chain: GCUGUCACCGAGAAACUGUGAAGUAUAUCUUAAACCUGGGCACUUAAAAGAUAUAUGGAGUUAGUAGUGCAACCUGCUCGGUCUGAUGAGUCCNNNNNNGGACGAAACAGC

# Variants of: B1
# assay-name: normalized RNA/DNA level without ligand (relative to sTRSVctl = 100) (log10 (% of sTRSVctl)); HEK293T; ligand: cyclic di-GMP (c-di-GMP-II aptamer); higher = less ribozyme self-cleavage, higher mRNA level
# setup-conditions: reporter: mCherry (pCS4076), ligand present: no
measurement-kind: normalized RNA/DNA level without ligand (log10)
Answer as a number with no unit attached.

Qu. Fill in normalized RNA/DNA level without ligand (log10) for record GCUGUCACCGAGAAACUGUGAAGUAUAUCUUAAACCUGGGCACUUAAAAGAUAUAUGGAGUUAGUAGUGCAACCUGCUCGGUCUGAUGAGUCCCAACGGGGACGAAACAGC [CAACGG]
Ans. 1.67

Qu. Fill in normalized RNA/DNA level without ligand (log10) for record GCUGUCACCGAGAAACUGUGAAGUAUAUCUUAAACCUGGGCACUUAAAAGAUAUAUGGAGUUAGUAGUGCAACCUGCUCGGUCUGAUGAGUCCACUUAUGGACGAAACAGC [ACUUAU]
Ans. 1.55

Qu. Fill in normalized RNA/DNA level without ligand (log10) for record GCUGUCACCGAGAAACUGUGAAGUAUAUCUUAAACCUGGGCACUUAAAAGAUAUAUGGAGUUAGUAGUGCAACCUGCUCGGUCUGAUGAGUCCAACAGCGGACGAAACAGC [AACAGC]
Ans. 1.63

Qu. Fill in normalized RNA/DNA level without ligand (log10) for record GCUGUCACCGAGAAACUGUGAAGUAUAUCUUAAACCUGGGCACUUAAAAGAUAUAUGGAGUUAGUAGUGCAACCUGCUCGGUCUGAUGAGUCCGAAAAUGGACGAAACAGC [GAAAAU]
Ans. 1.55

Qu. Fill in normalized RNA/DNA level without ligand (log10) for record GCUGUCACCGAGAAACUGUGAAGUAUAUCUUAAACCUGGGCACUUAAAAGAUAUAUGGAGUUAGUAGUGCAACCUGCUCGGUCUGAUGAGUCCCUCAGUGGACGAAACAGC [CUCAGU]
Ans. 1.75

Qu. Fill in normalized RNA/DNA level without ligand (log10) for record GCUGUCACCGAGAAACUGUGAAGUAUAUCUUAAACCUGGGCACUUAAAAGAUAUAUGGAGUUAGUAGUGCAACCUGCUCGGUCUGAUGAGUCCUCUAUGGGACGAAACAGC [UCUAUG]
Ans. 1.7

Qu. Fill in normalized RNA/DNA level without ligand (log10) for record GCUGUCACCGAGAAACUGUGAAGUAUAUCUUAAACCUGGGCACUUAAAAGAUAUAUGGAGUUAGUAGUGCAACCUGCUCGGUCUGAUGAGUCCAGGUCUGGACGAAACAGC [AGGUCU]
Ans. 1.73

Qu. Fill in normalized RNA/DNA level without ligand (log10) for record GCUGUCACCGAGAAACUGUGAAGUAUAUCUUAAACCUGGGCACUUAAAAGAUAUAUGGAGUUAGUAGUGCAACCUGCUCGGUCUGAUGAGUCCAGAGGGGGACGAAACAGC [AGAGGG]
Ans. 1.47

Qu. Fill in normalized RNA/DNA level without ligand (log10) for record GCUGUCACCGAGAAACUGUGAAGUAUAUCUUAAACCUGGGCACUUAAAAGAUAUAUGGAGUUAGUAGUGCAACCUGCUCGGUCUGAUGAGUCCCAUAGGGGACGAAACAGC [CAUAGG]
Ans. 1.69

Qu. Fill in normalized RNA/DNA level without ligand (log10) for record GCUGUCACCGAGAAACUGUGAAGUAUAUCUUAAACCUGGGCACUUAAAAGAUAUAUGGAGUUAGUAGUGCAACCUGCUCGGUCUGAUGAGUCCAGGCAUGGACGAAACAGC [AGGCAU]
Ans. 1.63

Qu. Fill in normalized RNA/DNA level without ligand (log10) for record GCUGUCACCGAGAAACUGUGAAGUAUAUCUUAAACCUGGGCACUUAAAAGAUAUAUGGAGUUAGUAGUGCAACCUGCUCGGUCUGAUGAGUCCAAGUGGGGACGAAACAGC [AAGUGG]
Ans. 1.68

Qu. Fill in normalized RNA/DNA level without ligand (log10) for record GCUGUCACCGAGAAACUGUGAAGUAUAUCUUAAACCUGGGCACUUAAAAGAUAUAUGGAGUUAGUAGUGCAACCUGCUCGGUCUGAUGAGUCCGAUUCGGGACGAAACAGC [GAUUCG]
Ans. 1.75

Qu. Fill in normalized RNA/DNA level without ligand (log10) for record GCUGUCACCGAGAAACUGUGAAGUAUAUCUUAAACCUGGGCACUUAAAAGAUAUAUGGAGUUAGUAGUGCAACCUGCUCGGUCUGAUGAGUCCUGAUAAGGACGAAACAGC [UGAUAA]
Ans. 1.63

Qu. Fill in normalized RNA/DNA level without ligand (log10) for record GCUGUCACCGAGAAACUGUGAAGUAUAUCUUAAACCUGGGCACUUAAAAGAUAUAUGGAGUUAGUAGUGCAACCUGCUCGGUCUGAUGAGUCCUUGGUCGGACGAAACAGC [UUGGUC]
Ans. 1.77

Qu. Fill in normalized RNA/DNA level without ligand (log10) for record GCUGUCACCGAGAAACUGUGAAGUAUAUCUUAAACCUGGGCACUUAAAAGAUAUAUGGAGUUAGUAGUGCAACCUGCUCGGUCUGAUGAGUCCGAAUGUGGACGAAACAGC [GAAUGU]
Ans. 1.58

Qu. Fill in normalized RNA/DNA level without ligand (log10) for record GCUGUCACCGAGAAACUGUGAAGUAUAUCUUAAACCUGGGCACUUAAAAGAUAUAUGGAGUUAGUAGUGCAACCUGCUCGGUCUGAUGAGUCCUGUAUCGGACGAAACAGC [UGUAUC]
Ans. 1.73

Qu. Fill in normalized RNA/DNA level without ligand (log10) for record GCUGUCACCGAGAAACUGUGAAGUAUAUCUUAAACCUGGGCACUUAAAAGAUAUAUGGAGUUAGUAGUGCAACCUGCUCGGUCUGAUGAGUCCUGAUGAGGACGAAACAGC [UGAUGA]
Ans. 1.58

Qu. Fill in normalized RNA/DNA level without ligand (log10) for record GCUGUCACCGAGAAACUGUGAAGUAUAUCUUAAACCUGGGCACUUAAAAGAUAUAUGGAGUUAGUAGUGCAACCUGCUCGGUCUGAUGAGUCCUGCUCGGGACGAAACAGC [UGCUCG]
Ans. 1.77

Qu. Fill in normalized RNA/DNA level without ligand (log10) for record GCUGUCACCGAGAAACUGUGAAGUAUAUCUUAAACCUGGGCACUUAAAAGAUAUAUGGAGUUAGUAGUGCAACCUGCUCGGUCUGAUGAGUCCAUUGUCGGACGAAACAGC [AUUGUC]
Ans. 1.73

Qu. Fill in normalized RNA/DNA level without ligand (log10) for record GCUGUCACCGAGAAACUGUGAAGUAUAUCUUAAACCUGGGCACUUAAAAGAUAUAUGGAGUUAGUAGUGCAACCUGCUCGGUCUGAUGAGUCCAGUCCUGGACGAAACAGC [AGUCCU]
Ans. 1.77

Qu. Fill in normalized RNA/DNA level without ligand (log10) for record GCUGUCACCGAGAAACUGUGAAGUAUAUCUUAAACCUGGGCACUUAAAAGAUAUAUGGAGUUAGUAGUGCAACCUGCUCGGUCUGAUGAGUCCACAACUGGACGAAACAGC [ACAACU]
Ans. 1.57

Qu. Fill in normalized RNA/DNA level without ligand (log10) for record GCUGUCACCGAGAAACUGUGAAGUAUAUCUUAAACCUGGGCACUUAAAAGAUAUAUGGAGUUAGUAGUGCAACCUGCUCGGUCUGAUGAGUCCAAAAAAGGACGAAACAGC [AAAAAA]
Ans. 1.37

Qu. Fill in normalized RNA/DNA level without ligand (log10) for record GCUGUCACCGAGAAACUGUGAAGUAUAUCUUAAACCUGGGCACUUAAAAGAUAUAUGGAGUUAGUAGUGCAACCUGCUCGGUCUGAUGAGUCCCCCAGCGGACGAAACAGC [CCCAGC]
Ans. 1.72

Qu. Fill in normalized RNA/DNA level without ligand (log10) for record GCUGUCACCGAGAAACUGUGAAGUAUAUCUUAAACCUGGGCACUUAAAAGAUAUAUGGAGUUAGUAGUGCAACCUGCUCGGUCUGAUGAGUCCGAGAUUGGACGAAACAGC [GAGAUU]
Ans. 1.71

Qu. Fill in normalized RNA/DNA level without ligand (log10) for record GCUGUCACCGAGAAACUGUGAAGUAUAUCUUAAACCUGGGCACUUAAAAGAUAUAUGGAGUUAGUAGUGCAACCUGCUCGGUCUGAUGAGUCCUGUUUUGGACGAAACAGC [UGUUUU]
Ans. 1.71

Qu. Fill in normalized RNA/DNA level without ligand (log10) for record GCUGUCACCGAGAAACUGUGAAGUAUAUCUUAAACCUGGGCACUUAAAAGAUAUAUGGAGUUAGUAGUGCAACCUGCUCGGUCUGAUGAGUCCACUGCCGGACGAAACAGC [ACUGCC]
Ans. 1.74

Qu. Fill in normalized RNA/DNA level without ligand (log10) for record GCUGUCACCGAGAAACUGUGAAGUAUAUCUUAAACCUGGGCACUUAAAAGAUAUAUGGAGUUAGUAGUGCAACCUGCUCGGUCUGAUGAGUCCAAAUAGGGACGAAACAGC [AAAUAG]
Ans. 1.54

Qu. Fill in normalized RNA/DNA level without ligand (log10) for record GCUGUCACCGAGAAACUGUGAAGUAUAUCUUAAACCUGGGCACUUAAAAGAUAUAUGGAGUUAGUAGUGCAACCUGCUCGGUCUGAUGAGUCCAUGGACGGACGAAACAGC [AUGGAC]
Ans. 1.6

Qu. Fill in normalized RNA/DNA level without ligand (log10) for record GCUGUCACCGAGAAACUGUGAAGUAUAUCUUAAACCUGGGCACUUAAAAGAUAUAUGGAGUUAGUAGUGCAACCUGCUCGGUCUGAUGAGUCCUAAGAGGGACGAAACAGC [UAAGAG]
Ans. 1.61

Qu. Fill in normalized RNA/DNA level without ligand (log10) for record GCUGUCACCGAGAAACUGUGAAGUAUAUCUUAAACCUGGGCACUUAAAAGAUAUAUGGAGUUAGUAGUGCAACCUGCUCGGUCUGAUGAGUCCCAUGUUGGACGAAACAGC [CAUGUU]
Ans. 1.72
